System: porcine CYP3A
Assay: Inhibition of CYP3A activity (7-benzyloxy-4-trifluoromethylcoumarin O-dealkylation) in porcine hepatic microsomes
Format: in vitro ADME, pig
Conditions: 16 μM compound; hepatic microsomes from male and female pigs; 10 μM BFC
Protocol: Microsomes were prepared with a calcium aggregation method using Tris-EDTA homogenization buffer. Experiments were performed using pools of microsomes consisting of microsomes from two individual pigs. The total microsomal protein concentration was analyzed the same day using a commercially available kit (Bio-Rad Laboratories Inc., Hercules, CA, USA) according to the manufacturer's instructions. Microsomes were diluted to a protein concentration of 10 mg/mL and stored at −80°C until analysis. […]

{"columns": ["compound", "subject of test", "effect on CYP3A activity"],
 "data": [
  ["COc1cc(-c2oc3cc(O)cc(O)c3c(=O)c2O)ccc1O [isorhamnetin]", "porcine CYP3A", "decreased"],
  ["O=C(O)c1cc(O)c(O)c(O)c1 [gallic acid]", "porcine CYP3A", "did not alter activity"],
  ["O=c1c(O)c(-c2cc(O)c(O)c(O)c2)oc2cc(O)cc(O)c12 [myricetin]", "porcine CYP3A", "decreased"],
  ["C[C@@H]1O[C@@H](OC[C@H]2O[C@@H](Oc3c(-c4ccc(O)c(O)c4)oc4cc(O)cc(O)c4c3=O)[C@H](O)[C@@H](O)[C@@H]2O)[C@H](O)[C@H](O)[C@H]1O [rutin]", "porcine CYP3A", "did not alter activity"],
  ["O=C(O)/C=C/c1ccc(O)cc1 [p-coumaric acid]", "porcine CYP3A", "did not alter activity"],
  ["O=C(O)/C=C/c1ccc(O)c(O)c1 [caffeic acid]", "porcine CYP3A", "did not alter activity"]
]}

meta.source: paper PMC4317639
